Answer each item with its documented Neutralization titer SK50.
# test.target: HA of virus A/Solomon Islands/IVR-145 (H1N1) (influenza A virus (H1N1))
# measurement.description: cell-based or functional assay

[
  {
    "binder": "CR8017 (antibody, V domains shown) VH: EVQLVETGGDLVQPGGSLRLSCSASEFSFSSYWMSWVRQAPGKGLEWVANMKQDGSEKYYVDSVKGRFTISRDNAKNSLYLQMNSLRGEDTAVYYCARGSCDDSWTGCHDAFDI VL: SSELTQDPAVSVALGQTVRITCQGDSLRSYYASWYQQKPGQAPVLVIYAKTNRPSGIPDRFSGSTSGNTASLTITGAQAEDEADYYCNSRDSSGNHVV",
    "Neutralization titer SK50": "> 40 µg/mL"
  }
]

## Task Fill blank: measured Neutralization titer SK50 of the binder CR8001 (antibody, V domains shown) VH: EVQLVESGGGLIQPGGSLRLSCAASGFTVSSNYVSWVRQAPGKGLEWLSLIYTGGTTYYADSVKGRFTISRDNSKNTVFLQMNSLRAEDAAMYYCARVSALRFLQWPNYAMDV VL: QSALTQPASVSGSPGRSITISCSGTRSDVGGHNYVSWYQQHPGKAPKLMIYEVSHRPSGVSNRFSGSKSGSTASLTISGLQSEDEADYYCSSYTGEGPLGV is ____.
## Result > 40 µg/mL
